Just for reference, the Immune Epitope Database (IEDB) is where these values come from.

Target: HLA-B*35:01
Assay: IEDB peptide-MHC binding, purified MHC/competitive/radioactivity; filed as Kd, often an IC50 or EC50 that approximates it; bounds were set here for any values at or beyond the usual limits of such assays
Conditions: source organism: SARS coronavirus Tor2
pKd: −log10 of the molar value.
experimental-readout: pKd

1. SPLFLIVAA; 5.98

----------
Target: HLA-B*53:01
Experiment: IEDB peptide-MHC binding, purified MHC/competitive/fluorescence; bounds were set here for any values at or beyond the usual limits of such assays
Settings: source organism: Human herpesvirus 4 type 2
pIC50: −log10 of the molar value.
experimental-readout: pIC50

1. FSSQLGLFY; 5.53

----------
Target: HLA-A*68:02
Assay: IEDB peptide-MHC binding, purified MHC/competitive/radioactivity; filed as Kd, often an IC50 or EC50 that approximates it; bounds were set here for any values at or beyond the usual limits of such assays
Conditions: source organism: Lassa virus Josiah
experimental-readout: Kd (nM)

1. FVFSTSFYL; 0.508

----------
log10 of Kd reference
Target: HLA-A*31:01
Experiment: IEDB peptide-MHC binding, purified MHC/competitive/radioactivity; filed as Kd, often an IC50 or EC50 that approximates it; bounds were set here for any values at or beyond the usual limits of such assays
Conditions: source organism: Vaccinia virus WR
experimental-readout: log10 of Kd (log10 of the value in nM)

1) FFAYVMNIER; 2.02
2) QMREIITGNK; 3.29
3) VSVDAMIHK; 3.85
4) SSYIDFENTK; 2.14
5) HILHAYCGIK; 4.13
6) ILSKWHTSAR; 2.10
7) IINFTISMR; 0.35
8) LLAISAVYFK; 2.58

----------
Target: HLA-B*51:01
Assay: IEDB peptide-MHC binding, purified MHC/direct/fluorescence; filed as Kd, often an IC50 or EC50 that approximates it; bounds were set here for any values at or beyond the usual limits of such assays
Settings: source organism: Escherichia coli O157:H7 str. EC869
pKd: −log10 of the molar value.
experimental-readout: pKd

1. ETIGLVRAL; ≤ 4.70

----------
Target: HLA-B*08:01
Test: IEDB peptide-MHC binding, purified MHC/competitive/fluorescence; filed as Kd, often an IC50 or EC50 that approximates it; bounds were set here for any values at or beyond the usual limits of such assays
Conditions: source organism: Variola virus
pKd: −log10 of the molar value.
experimental-readout: pKd

1) IFLIITKVF; ≤ 4.70

----------
Biological target: HLA-A*69:01
Experiment: IEDB peptide-MHC binding, purified MHC/direct/fluorescence; filed as Kd, often an IC50 or EC50 that approximates it; bounds were set here for any values at or beyond the usual limits of such assays
Conditions: source organism: Homo sapiens
pKd: −log10 of the molar value.
experimental-readout: pKd

1) EHAGVISVL; 5.33

----------
Molecular target: HLA-A*24:02
Experiment: IEDB peptide-MHC binding, purified MHC/competitive/radioactivity; filed as Kd, often an IC50 or EC50 that approximates it; bounds were set here for any values at or beyond the usual limits of such assays
Conditions: source organism: Mammarenavirus guanaritoense
experimental-readout: Kd

1. IMRNLTNLL; ≥ 33.1 µM
2. AYEHKNRSRL; ≥ 26.5 µM
3. SAIFFTTSLF; 0.452 µM

----------
Molecular target: HLA-C*14:02
Experiment: IEDB peptide-MHC binding, purified MHC/competitive/fluorescence; filed as Kd, often an IC50 or EC50 that approximates it; bounds were set here for any values at or beyond the usual limits of such assays
Conditions: source organism: Homo sapiens
pKd: −log10 of the molar value.
experimental-readout: pKd

1) VMAPRTLIL; 6.68

----------
Target: HLA-A*01:01
Experiment: IEDB peptide-MHC binding, purified MHC/direct/fluorescence; filed as Kd, often an IC50 or EC50 that approximates it; bounds were set here for any values at or beyond the usual limits of such assays
Details: source organism: Yellow fever virus
pKd: −log10 of the molar value.
experimental-readout: pKd

1. VNRWLFRHL; ≤ 4.70

----------
Target: HLA-A*29:02
Experiment: IEDB peptide-MHC binding, purified MHC/competitive/fluorescence; filed as Kd, often an IC50 or EC50 that approximates it; bounds were set here for any values at or beyond the usual limits of such assays
Settings: source organism: Entamoeba dispar SAW760
experimental-readout: Kd (nM)

1. PVPDFPYRY; 6.8

----------
Molecular target: HLA-A*24:02
Experiment: IEDB peptide-MHC binding, purified MHC/competitive/radioactivity; filed as Kd, often an IC50 or EC50 that approximates it; bounds were set here for any values at or beyond the usual limits of such assays
Settings: source organism: Dengue virus 4 Philippines/H241/1956
pKd: −log10 of the molar value.
pKd for assorted sequences
experimental-readout: pKd

1. VTMTLWYMW; 7.50
2. YVILTILTI; 5.22
3. VMKRYSAPF; 6.00

----------
Target: HLA-B*15:01
Experiment: IEDB peptide-MHC binding, purified MHC/direct/fluorescence; filed as Kd, often an IC50 or EC50 that approximates it; bounds were set here for any values at or beyond the usual limits of such assays
Details: source organism: Vibrio cholerae V52
pKd: −log10 of the molar value.
experimental-readout: pKd

1) YLKKGRLSL; 7.28

----------
Target: HLA-B*15:01
Assay: IEDB peptide-MHC binding, purified MHC/direct/fluorescence; filed as Kd, often an IC50 or EC50 that approximates it; bounds were set here for any values at or beyond the usual limits of such assays
Conditions: source organism: Pasteurella multocida
experimental-readout: Kd (µM)

1) LLKDLMPFV; 9.23

----------
Biological target: HLA-B*15:01
Assay: IEDB peptide-MHC binding, purified MHC/direct/fluorescence; filed as Kd, often an IC50 or EC50 that approximates it; bounds were set here for any values at or beyond the usual limits of such assays
Conditions: source organism: Giardia lamblia ATCC 50803
pKd: −log10 of the molar value.
experimental-readout: pKd

1. HCIDKTPGL; ≤ 4.70
2. EFDNYRGTI; ≤ 4.70
3. QPWTPVSSF; ≤ 4.70
4. CYPRLWGVR; ≤ 4.70
5. KLADMSIYC; 5.40

----------
Molecular target: HLA-B*35:01
Assay: IEDB peptide-MHC binding, purified MHC/competitive/fluorescence; filed as Kd, often an IC50 or EC50 that approximates it; bounds were set here for any values at or beyond the usual limits of such assays
Details: source organism: Encephalitozoon cuniculi GB-M1
experimental-readout: Kd (µM)

1. ILRQNMIAL; 3.18

----------
Biological target: HLA-B*07:02
Test: IEDB peptide-MHC binding, purified MHC/direct/fluorescence; filed as Kd, often an IC50 or EC50 that approximates it; bounds were set here for any values at or beyond the usual limits of such assays
Conditions: source organism: West Nile virus
experimental-readout: Kd

1. YCPGTTVTL; ≥ 20 µM

----------
Target: HLA-A*03:01
Assay: IEDB peptide-MHC binding, purified MHC/competitive/fluorescence; bounds were set here for any values at or beyond the usual limits of such assays
Conditions: source organism: Rattus norvegicus
pIC50: −log10 of the molar value.
experimental-readout: pIC50

1. SLLERGQQLGV; ≤ 4.70

----------
Target: HLA-A*23:01
Experiment: IEDB peptide-MHC binding, purified MHC/competitive/radioactivity; filed as Kd, often an IC50 or EC50 that approximates it; bounds were set here for any values at or beyond the usual limits of such assays
Details: source organism: Lymphocytic choriomeningitis virus (strain Armstrong)
experimental-readout: Kd (µM)

1) LIFRGPNVV; 15.4

----------
Molecular target: HLA-A*30:02
Test: IEDB peptide-MHC binding, purified MHC/competitive/radioactivity; filed as Kd, often an IC50 or EC50 that approximates it; bounds were set here for any values at or beyond the usual limits of such assays
Details: source organism: Dengue virus 2 Jamaica/1409/1983
experimental-readout: Kd (nM)

1) KVDAIDGEY; 171
2) SQHNYRPGY; 777

----------
Molecular target: HLA-B*27:20
Assay: IEDB peptide-MHC binding, purified MHC/competitive/fluorescence; filed as Kd, often an IC50 or EC50 that approximates it; bounds were set here for any values at or beyond the usual limits of such assays
Conditions: source organism: Cryptosporidium parvum Iowa II
pKd: −log10 of the molar value.
experimental-readout: pKd

1. MQFPGSVGF; 9.10

----------
Molecular target: HLA-B*39:01
Test: IEDB peptide-MHC binding, purified MHC/competitive/fluorescence; filed as Kd, often an IC50 or EC50 that approximates it; bounds were set here for any values at or beyond the usual limits of such assays
Conditions: source organism: Araucaria virus
experimental-readout: Kd

1) LYVAGVPEL; ≥ 20 µM

----------
The entries below are paired with their reported Kd.
Molecular target: HLA-B*58:01
Experiment: IEDB peptide-MHC binding, purified MHC/direct/fluorescence; filed as Kd, often an IC50 or EC50 that approximates it; bounds were set here for any values at or beyond the usual limits of such assays
Settings: source organism: Giardia lamblia ATCC 50803
experimental-readout: Kd

1) CYPRLWGVR; ≥ 20 µM
2) EFDNYRGTI; ≥ 20 µM
3) QPWTPVSSF; 19.1 µM
4) HCIDKTPGL; ≥ 20 µM
5) KLADMSIYC; ≥ 20 µM
